system: U2OS; assay: Multiplex assay against U2OS; assay type: toxicity, cell-based; details: human, 48 h, 10 µM, compound concentration 10 uM, replicate 1
Population Apoptotic (%) reference
Record the value in %, omitting the unit from your answer.

The examples below pair each entry with its known result.
1) COc1cc(OC2CCN(C(C)=O)CC2)ccc1C(=O)N1CCC(N2C(=O)OCc3ccccc32)CC1 = 81
2) CN(C)C(=O)Cn1cc(-c2ccc(-c3nnc4ccccn34)cc2)cn1 = 95

Fill blank: measured Population Apoptotic (%) of the compound COc1c(Nc2ccc(S(C)(=O)=O)nc2C)ncnc1OC1CCN(C(=O)OC(C)C)CC1 is ____.
79

Fill blank: measured Population Apoptotic (%) of the compound CCCCCCNC(=O)Nc1ccc(S(=O)(=O)Nc2ccc(CCNC[C@H](O)COc3ccc(O)cc3)cc2)cc1 is ____.
80

Fill blank: measured Population Apoptotic (%) of the compound COCCCN1CCC(NC(=O)c2cc(Cl)c(N)c3c2OCC3)CC1 [PRUCALOPRIDE] is ____.
88

* * *

Population Apoptotic (%) reference
test system: Fibroblast; test: Multiplex assay against human fibroblast; format: toxicity, cell-based; settings: 24 h, 10 µM, compound concentration 10 uM, replicate 2
Record the value in %, omitting the unit from your answer.

The examples below pair each entry with its known result.
1) CCCCC[C@H](O)/C=C/[C@H]1[C@H](O)CC(=O)[C@@H]1CCCCCCC(=O)O = 30
2) Cc1cc(O)c(-c2ccc([C@@H](C)CN(C)C)cc2)c2c1[nH]c(=O)c1sccc12 = 57
3) O=C(Nc1cc(-c2ccccc2)nn1-c1ccccc1F)c1ccc([N+](=O)[O-])cc1 = 28

Fill blank: measured Population Apoptotic (%) of the molecule CC(C)(O)C(=O)N1CCN(c2ccc(C(F)(F)F)c(C3=C(c4c[nH]c5ccccc45)C(=O)NC3=O)c2)CC1 is ____.
36

* * *

test system: Fibroblast; experiment: Multiplex assay against human fibroblast; assay type: toxicity, cell-based; conditions: 48 h, 1 µM, compound concentration 1 uM, replicate 1
QUANTITY KIND: Population Fragmented Nuclei (%)
Could you kindly put the unit after your number?

The examples below pair each entry with its known result.
1. Cc1cc(=O)n(C)c2cc(N3C(=O)CC[C@H](NS(=O)(=O)CC(C)C)[C@H]3c3ccc(Cl)cc3)ccc12 = 27%
2. COc1cc(Nc2ncc3c(n2)-c2ccc(Cl)cc2C(c2c(F)cccc2OC)=NC3)ccc1C(=O)O = 15%
3. CCC(=O)OCC(=O)[C@@]1(OC(=O)CC)[C@@H](C)C[C@H]2[C@@H]3CCC4=CC(=O)C=C[C@]4(C)[C@@]3(Cl)[C@@H](O)C[C@@]21C [BECLOMETHASONE DIPROPIONATE] = 13%
4. COc1cc2nc(N3CCN(C(=O)c4ccco4)CC3)nc(N)c2cc1OC.Cl [PRAZOSIN HYDROCHLORIDE] = 24%
5. Nc1nc(CC(=O)Nc2ccc(CCNC[C@H](O)c3ccccc3)cc2)cs1 = 23%

Query the reported Population Fragmented Nuclei (%) for Fibroblast; item: CN1CCC(C(=O)c2cccc(NC(=O)c3c(F)cc(F)cc3F)n2)CC1
16%

Query the reported Population Fragmented Nuclei (%) for Fibroblast; item: CN1C[C@H](C(=O)N[C@]2(C)O[C@@]3(O)[C@@H]4CCCN4C(=O)[C@H](Cc4ccccc4)N3C2=O)C[C@@H]2c3cccc4[nH]cc(c34)C[C@H]21.CS(=O)(=O)O [DIHYDROERGOTAMINE MESYLATE]
20%

* * *

system: U2OS; assay: Multiplex assay against U2OS; assay type: toxicity, cell-based; details: human, 12 h, 1 µM, compound concentration 1 uM, replicate 2
Population Fragmented Nuclei (%) reference
Record the value in %, omitting the unit from your answer.

1) Cc1cc(NC(=O)NCCN2CCC(O)(Cc3ccccc3)CC2)c2ccccc2n1 = 19
2) COC(c1ccccc1)(c1ccccc1)[C@H](Oc1nc(C)cc(C)n1)C(=O)O = 21
3) CCC(=O)OCC(=O)[C@@]1(OC(=O)CC)[C@@H](C)C[C@H]2[C@@H]3CCC4=CC(=O)C=C[C@]4(C)[C@@]3(Cl)[C@@H](O)C[C@@]21C [BECLOMETHASONE DIPROPIONATE] = 18
4) CC(C)(O)C(=O)N1CCN(c2ccc(C(F)(F)F)c(C3=C(c4c[nH]c5ccccc45)C(=O)NC3=O)c2)CC1 = 14
5) Cc1nn(C)c2nc(NNC(=O)Nc3cc(Cl)nc(Cl)c3)cc(C(C)C)c12 = 14
6) COCCCN1CCC(NC(=O)c2cc(Cl)c(N)c3c2OCC3)CC1 [PRUCALOPRIDE] = 21
7) Cc1c(Cc2ccc3ccccc3n2)c2cc(F)ccc2n1CC(=O)O = 22
8) CCCCC[C@H](O)/C=C/[C@H]1[C@H](O)CC(=O)[C@@H]1CCCCCCC(=O)O = 11

Fill blank: measured Population Fragmented Nuclei (%) of the molecule COCCn1c(C)c(C)s/c1=N\C(=O)C1C(C)(C)C1(C)C is ____.
20

Fill blank: measured Population Fragmented Nuclei (%) of the molecule CC(C)C[C@H](CO)Nc1nc(S[C@@H](C)c2ccccc2)nc2nc(N)sc12 is ____.
12

* * *

test system: HEK-293T; assay: Multiplex assay against HEK293T; assay type: toxicity, cell-based; details: human, 12 h, 10 µM, compound concentration 10 uM, replicate 1
I'd appreciate it if you could label each record using Population Apoptotic (%) and these ranges: class A = under 40%, class B = from 40% up to 60%, class C = 60% and over

Below are worked cases with known answers.
1) OCCCNc1cc(-c2ccnc(Nc3cccc(Cl)c3)n2)ccn1 = class C
2) CN1CCN(c2ccc(Nc3c4ccccc4nc4ccccc34)cc2)CC1.Cl.Cl.O = class C
3) CCCCCCNC(=O)Nc1ccc(S(=O)(=O)Nc2ccc(CCNC[C@H](O)COc3ccc(O)cc3)cc2)cc1 = class B
4) CN1CCN2c3ccccc3Cc3ccccc3C2C1.Cl (centres undefined) [MIANSERIN HYDROCHLORIDE] = class A
5) O=C(Nc1cc(-c2ccccc2)nn1-c1ccccc1F)c1ccc([N+](=O)[O-])cc1 = class A
6) C[C@@H]1CC(=O)Nc2cccc(-c3ccc4c(c3)c(-c3cnn(C)c3)nn4C)c2N1 = class B
7) Cc1cc(NC(=O)NCCN2CCC(O)(Cc3ccccc3)CC2)c2ccccc2n1 = class A
8) Cc1nn(C)c2nc(NNC(=O)Nc3cc(Cl)nc(Cl)c3)cc(C(C)C)c12 = class B

// next entry
Which class is correct for the following compound? CCn1c(-c2nc3cc(C(=O)N4CCCC(N)C4)ccc3n2C)cc2ccccc21.Cl (centres undefined)
class B

* * *

system: U2OS; assay: Multiplex assay against U2OS; assay type: toxicity, cell-based; conditions: human, 12 h, 1 µM, compound concentration 1 uM, replicate 2
QUANTITY KIND: Total Cell Count
Quick one: just the number, no unit, thanks!

The examples below pair each entry with its known result.
1. CC(C)(O)C(=O)N1CCN(c2ccc(C(F)(F)F)c(C3=C(c4c[nH]c5ccccc45)C(=O)NC3=O)c2)CC1 = 134
2. CC(C)(C)c1ccc(CSc2cnn(C(C)(C)C)c(=O)c2Cl)cc1 [PYRIDABEN] = 152
3. O=C(O)CCC/C=C\CC1C(O)CC(O)C1/C=C/C(O)COc1cccc(Cl)c1 (centres undefined) [CLOPROSTENOL] = 129

Please find the next molecule below.
Fill blank: measured Total Cell Count of the molecule O=C(Nc1cc(-c2ccccc2)nn1-c1ccccc1F)c1ccc([N+](=O)[O-])cc1 is ____.
182

* * *

system: HEK-293T; assay: Multiplex assay against HEK293T; assay type: toxicity, cell-based; conditions: human, 24 h, 1 µM, compound concentration 1 uM, replicate 1
So basically, if Population Healthy Nuclei (%) comes in under 80% it's condition met, and if it's 80% or more it's condition not met.

1. CN1CCC(C(=O)c2cccc(NC(=O)c3c(F)cc(F)cc3F)n2)CC1 = condition met
2. CN1CCN(c2ccc(Nc3c4ccccc4nc4ccccc34)cc2)CC1.Cl.Cl.O = condition not met
3. C[C@@H]1CC(=O)Nc2cccc(-c3ccc4c(c3)c(-c3cnn(C)c3)nn4C)c2N1 = condition met

// next entry
Input CN(C)C(=O)Cn1cc(-c2ccc(-c3nnc4ccccn34)cc2)cn1 ; condition: Population Healthy Nuclei (%) strictly below 80%. Does it hold?
condition met

* * *

Total Cell Count reference
system: U2OS; assay: Multiplex assay against U2OS; assay type: toxicity, cell-based; settings: human, 48 h, 10 µM, compound concentration 10 uM, replicate 1
Quick one: just the number, no unit, thanks!

The examples below pair each entry with its known result.
1) CC(C)C[C@H](CO)Nc1nc(S[C@@H](C)c2ccccc2)nc2nc(N)sc12 [AZD-8797] = 296
2) CCCCCCNC(=O)Nc1ccc(S(=O)(=O)Nc2ccc(CCNC[C@H](O)COc3ccc(O)cc3)cc2)cc1 [L-755507] = 419
3) CC(C)(C)c1ccc(CSc2cnn(C(C)(C)C)c(=O)c2Cl)cc1 [PYRIDABEN] = 280
4) COc1ccc2[nH]c(I)c(CCNC(C)=O)c2c1 [IODOMELATONIN] = 373

Please find the next compound below.
Fill blank: measured Total Cell Count of the compound N[C@](CC1c2ccccc2Oc2ccccc21)(C(=O)O)[C@H]1C[C@@H]1C(=O)O is ____.
554
